src = patent US20240270762A1

# Experimental System: PBP3 from Escherichia coli (K-12) (Escherichia coli, UniProt P0AD68)
# Sequence (P0AD68 1-577): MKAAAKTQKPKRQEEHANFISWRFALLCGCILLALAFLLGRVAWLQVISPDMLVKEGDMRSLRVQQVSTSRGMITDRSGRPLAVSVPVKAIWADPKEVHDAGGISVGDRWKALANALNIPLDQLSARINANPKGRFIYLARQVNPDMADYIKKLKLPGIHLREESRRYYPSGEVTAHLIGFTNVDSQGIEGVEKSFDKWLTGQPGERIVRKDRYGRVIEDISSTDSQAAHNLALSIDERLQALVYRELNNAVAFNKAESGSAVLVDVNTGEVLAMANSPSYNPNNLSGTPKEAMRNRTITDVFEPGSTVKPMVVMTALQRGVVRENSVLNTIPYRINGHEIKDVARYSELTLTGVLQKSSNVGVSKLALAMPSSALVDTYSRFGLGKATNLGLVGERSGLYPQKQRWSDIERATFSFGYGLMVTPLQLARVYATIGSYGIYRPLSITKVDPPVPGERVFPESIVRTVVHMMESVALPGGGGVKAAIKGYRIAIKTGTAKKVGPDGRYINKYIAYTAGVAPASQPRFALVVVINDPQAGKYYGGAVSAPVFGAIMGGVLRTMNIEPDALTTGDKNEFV
# Protocol: Bocillin-FL fluorescence polarization competition binding, E. coli PBP3
Listing of entries alongside the reported EC50.

Compound | EC50
O=C(NCCCN1CCN(C(=O)N[C@H](C(=O)N[C@H]2Cc3ccc(F)c(C(=O)O)c3OB2O)c2cc(F)c(O)c(O)c2Cl)C(=O)C1=O)c1cc(F)c(O)cc1F (single isomer, unassigned) | 50 to 250 µM
O=C(N[C@@H](C(=O)N[C@H]1Cc2cccc(C(=O)O)c2OB1O)c1ccc(P(=O)(O)O)cc1)c1cnc2cccn2c1 (single isomer, unassigned) | 10 to 50 µM
O=C(NCCCN1CCN(C(=O)NC(C(=O)N[C@H]2Cc3ccc(F)c(C(=O)O)c3OB2O)c2cc(F)c(O)c(O)c2Cl)C(=O)C1=O)c1ccncc1F (stereo partly shown) | < 10 µM
O=C(NCCS(=O)(=O)N1CCN(C(=O)NC(C(=O)N[C@H]2Cc3ccc(F)c(C(=O)O)c3OB2O)c2cc(F)c(O)c(O)c2Cl)C1=O)c1ccccc1 (stereo partly shown) | < 10 µM
CS(=O)(=O)N1CCN(C(=O)N[C@@H](C(=O)N[C@H]2Cc3cccc(C(=O)O)c3OB2O)c2cc(F)c(P(=O)(O)O)c(F)c2)C1=O (single isomer, unassigned) | < 10 µM
O=C(NCCCN1CCN(C(=O)N[C@H](C(=O)N[C@H]2Cc3ccc(F)c(C(=O)O)c3OB2O)c2cc(F)c(O)c(O)c2Cl)C(=O)C1=O)c1ccc(O)cc1Cl (single isomer, unassigned) | 50 to 250 µM
CS(=O)(=O)N1CCC[C@@H]1C(=O)N[C@@H](C(=O)N[C@H]1Cc2cccc(C(=O)O)c2OB1O)c1ccc(P(=O)(O)O)cc1 | 10 to 50 µM
O=C(NCCN1CCN(C(=O)NC(C(=O)N[C@H]2Cc3ccc(F)c(C(=O)O)c3OB2O)c2cc(F)c(O)c(O)c2Cl)C(=O)C1=O)Nc1ccc(O)cc1 (stereo partly shown) | < 10 µM
CCN1CCN(C(=O)NC(C(=O)N[C@H]2Cc3cccc(C(=O)O)c3OB2O)c2c(F)cc(P(=O)(O)O)cc2F)C(=O)C1=O (stereo partly shown) | < 10 µM
CN(CCN1CCN(C(=O)N[C@@H](C(=O)N[C@H]2Cc3ccc(F)c(C(=O)O)c3OB2O)c2cc(F)c(O)c(O)c2Cl)C(=O)C1=O)Cc1nccs1 | 10 to 50 µM
O=C(NCCN1CCN(C(=O)NC(C(=O)N[C@H]2Cc3ccc(F)c(C(=O)O)c3OB2O)c2cc(F)c(O)c(O)c2Cl)C1=O)c1ccc(O)cc1 (stereo partly shown) | 10 to 50 µM
O=C(NCCCN1CCN(C(=O)NC(C(=O)N[C@H]2Cc3ccc(F)c(C(=O)O)c3OB2O)c2cc(F)c(O)c(O)c2Cl)C1=O)Nc1ccncc1 (stereo partly shown) | 10 to 50 µM
O=C(NCCCN1CCN(C(=O)NC(C(=O)N[C@H]2Cc3ccc(F)c(C(=O)O)c3OB2O)c2cc(F)c(O)c(O)c2Cl)C(=O)C1=O)c1ccc(O)c(Cl)c1 (stereo partly shown) | < 10 µM
